Recorded measurements of cytotoxicity at 70.5 h, one per entry
assay: Human HepG2 cell viability assay in 384 well format; assay type: toxicity, cell-based; parameters: dose 125 nL, time 70.5 hour; concentration not given beside the values; settings: HepG2 cells, read-out: Inhibition
Measurement Kind: cytotoxicity at 70.5 h (%)

Compound	Scale Unit	Endpoint Result
CCOc1ccccc1CCNC(=O)NCC(O)c1cccs1 (stereo not given)	%	-4.36
CCc1ccc(C(=O)Nc2cccc(CN3CCCC3C(N)=O)c2)cc1 (stereo not given)	%	0.802
Cn1nccc1NC(=O)Cn1ccc(-c2ccc3c(c2)OCO3)n1	%	-22.6
N#CCCN(CC1CCCO1)C(=O)c1ccc2nonc2c1 (stereo not given)	%	0.813
CNC(=O)C(C)(C)CNC(=O)Nc1cc(C)ccn1	%	-7.88
CN(Cc1cccnc1)CC1CNCc2nccn2C1 (stereo not given)	%	4.1
CS(=O)(=O)CCOCCNc1ccc(C(F)(F)F)cc1C#N	%	-3.49
CCN1CCOCC2(C1)CN(C(=O)c1c(C)noc1C)CCO2 (stereo not given)	%	-3.94
NC(=O)NC1CCN(Cc2ccccc2OCC(F)(F)F)CC1	%	-4.28
CC(=O)NCCc1cn(-c2cc(F)ccc2C)cn1	%	-8.56

* * *

Recorded cytotoxicity at 70.5 h, one value per entry.
experiment: Human HepG2 cell viability assay in 384 well format; format: toxicity, cell-based; design: dose 125 nL, time 70.5 hour; concentration not given beside the values; conditions: HepG2 cells, read-out: Inhibition

Compound	cytotoxicity at 70.5 h
O=c1[nH]c2ncccc2n1C1CCCC1	-0.61%
Cc1cc(CN2CCN(C(=O)C(C(C)C)n3cncn3)CC2)on1 (stereo unspecified)	-10.4%
CN(Cc1ccco1)C(=O)[C@H]1CSCN1C(=O)OC(C)(C)C	-1.49%
O=S(=O)(CCCNCCn1cccn1)c1ccccc1	-14.5%
Cc1cc(C(=O)N2CCc3nc4sc(C)cc4c(=O)n3CC2)on1	-2.99%
COc1ccc(OCC(=O)NS(=O)(=O)c2cc(F)ccc2F)cc1	20.8%

* * *

test: Human HepG2 cell viability assay in 384 well format; type: toxicity, cell-based; design: dose 125 nL, time 70.5 hour; concentration not given beside the values; conditions: HepG2 cells, read-out: Inhibition

Compound	cytotoxicity at 70.5 h
c1csc(CN2Cc3nccn3CC(Cn3cncn3)C2)n1 (stereo unspecified)	-7.09%
Cc1ccc(C(=O)N2CCN(CCc3ccccc3)CC2)c(=O)[nH]1	-7.75%
COc1ccc2c(c1)C(NCCc1c(C)noc1C)CCCO2 (stereo unspecified)	29.3%
O=C(NCCN1CCOCC1)c1ccc(-c2ccccc2)[nH]c1=O	-2.93%
CCCc1nc(CNc2cc(CS(C)(=O)=O)ccc2Cl)no1	-0.135%
Cc1ccc(-c2nc(CN3CCOC(Cn4cccn4)C3)cs2)o1 (stereo unspecified)	-13.3%
c1cc(CN2CCC(n3cc(CN4CCCC4)nn3)CC2)cs1	-5.26%
Cc1ccc(CNc2cc(C(=O)N3CCOCC3)nc(C)n2)cc1	-9.84%
COc1cccc(-c2nc(C)c(C(=O)N[C@@H](C)C(=O)O)s2)c1	4.53%
O=C(C1CCCCC1)N1C[C@@H]2CCNC[C@@H]21	-4.1%
CCNC(=O)CCCC(=O)N1CCc2cc(Cl)cc(Cl)c2C1	-4.11%

* * *

assay: Human HepG2 cell viability assay in 384 well format; type: toxicity, cell-based; set-up: dose 125 nL, time 70.5 hour; concentration not given beside the values; details: HepG2 cells, read-out: Inhibition
Catalogue of cytotoxicity at 70.5 h readings, one per entry.
Measurement Kind: cytotoxicity at 70.5 h (%)

Compound	Endpoint Result
CCc1cc(NC(=O)N2CCC(Oc3cccnc3)C2)n(C)n1 (stereo unspecified)	-6.65
CCn1cnnc1CNC(=O)NC(c1ccccc1)C1CCCC1 (stereo unspecified)	-7.51
CCCS(=O)(=O)N1CCC2(CC1)CN(CC1CCOC1)c1ccccc12 (stereo unspecified)	3.95
CN(Cc1ccc(F)c2cccnc12)C1CCS(=O)(=O)C1 (stereo unspecified)	-9.82
CC(C)c1ncc(CN2C[C@@H](CN3CCCC3)[C@@H](CO)C2)cn1	0.637
O=C(c1ccco1)N1CCO[C@@H]2CN(c3ccccn3)CC[C@@H]2C1	-4.86
Cc1nc(CC(=O)N2c3ccccc3OCC2C)cs1 (stereo unspecified)	-9.24
CCS(=O)(=O)N1CCC(c2nnc(C(F)(F)F)o2)CC1	5.3
Cc1nc(CN2CCO[C@@H]3CN(Cc4ccsc4)C[C@@H]3C2)cs1	0.892
CC(C)c1nn(C)cc1CNCc1cccnc1N(C)C	2.18
CCOCC1COCCC12CCN(C(=O)C1=CCCCC1)CC2 (stereo unspecified)	-4.56
CCNc1cc(N2CCN(C(=O)c3ccc(OC)cc3)CC2)nc(C)n1	-2.56
COCCNC(=O)c1c(-n2cnnn2)sc2c1CCCC2	-4.74
CCOC(=O)c1nc(COc2ccc(CC(N)=O)cc2)no1	-10.5
c1ccc(SCCN2CCCC(Cn3ccnc3)C2)cc1 (stereo unspecified)	-5.94
CCN(C)S(=O)(=O)N1CCCC(CO)(CC=C(C)C)C1 (stereo unspecified)	-2.99
COc1ccc(C(=O)N2CCN(CCO)CC2)c(F)c1	-4.32
O=S1(=O)CCCN(Cc2ccccc2OCC(F)(F)F)CC1	-8.02
COCc1cn(C2CCN(Cc3ccc(Cl)s3)CC2)nn1	-12.4
Cc1ncsc1-c1nc(Cc2cccs2)nn1C1CCN(C)CC1	-4.07
CCOCC1c2c(ncn2C(C)C)CCN1C(C)C (stereo unspecified)	-7.26
COCCO[C@H]1CCN(Cc2cccnc2)[C@H]1Cc1cccnc1	17.5
COCCN1C(=O)C[C@H]2[C@H]1CCN2Cc1ccc(OC)cc1	-7.39
Cc1cc(NS(=O)(=O)c2ccc(Cl)s2)ccc1-n1cccc1C(=O)O	-4.85
Cc1ncc(CN2CCc3c(nc4cc(C5CC5)nn4c3O)C2)n1C	-2.73
CN(C)C(=O)c1nc(-c2ccc(S(C)(=O)=O)cc2)c2ccccn12	-12.8
CCc1cc2cc(OC)c(OC)cc2nc1SCCN1CCCCC1	1.15
COc1cccc2c1OCC(NCCc1cnn(-c3ccccc3)c1)C2 (stereo unspecified)	-8.4
Cc1nc2c(c(C)c1CC(=O)Nc1cccc(C#N)c1)c(=O)[nH]n2C	15.2
COc1ncccc1CNC(=O)c1cc(C)on1	-8.23
O=c1[nH]ncn1-c1cccc(C(F)(F)F)c1	1.41
Cc1cccc(C2CCCN(C(=O)CN3CCC(C(N)=O)CC3)C2)c1 (stereo unspecified)	-4.32
O=C(c1ccco1)N1CCC2(CCOC2)C1 (stereo unspecified)	-13.3
Cc1nn(C)c2ncc(C(=O)N3CCNC(=O)C3)cc12	-3.66
COCCOc1nc(-c2ccccc2Cl)no1	-78.8
Cc1ccc(C(=O)NS(=O)(=O)c2ccc3c(c2)OCCCO3)o1	11.7

* * *

experiment: Human HepG2 cell viability assay in 384 well format; assay type: toxicity, cell-based; design: dose 125 nL, time 70.5 hour; concentration not given beside the values; conditions: HepG2 cells, read-out: Inhibition

Compound	Scale Unit	cytotoxicity at 70.5 h
CC(C)CS(=O)(=O)N1CCC2(CN(c3cccc(F)c3)C(=O)CN2C)C1 (centres undefined)	%	19.6
Cc1nc(CN2CCOCC23CCN(c2ccc(C#N)cc2)CC3)cs1	%	-2.38
Cc1ncc(C(=O)NC2CCN(CCOc3ccc(Br)cc3)CC2)s1	%	-4.58
CCc1ccc(C(C)NC(=O)CN(C)Cc2ccc(C)o2)cc1 (centres undefined)	%	-15

* * *

Readings of cytotoxicity at 70.5 h for the listed molecules
test: Human HepG2 cell viability assay in 384 well format; format: toxicity, cell-based; design: dose 125 nL, time 70.5 hour; concentration not given beside the values; conditions: HepG2 cells, read-out: Inhibition
Measurement Kind: cytotoxicity at 70.5 h (%)

Molecule	Measurement Kind	Endpoint Result
CNC(=O)[C@H]1C[C@@H]2CN(C(=O)c3ccc(C)nc3)C[C@@H]2N1C	cytotoxicity at 70.5 h	-15.1
CCC(CC)c1cc(CNC(=O)N2CCOCC2CC)on1 (stereo not drawn)	cytotoxicity at 70.5 h	-10.6
Cn1cc(CN2CCC(CCC(=O)NC3CC3)CC2)cn1	cytotoxicity at 70.5 h	0.934
CCN(CC)S(=O)(=O)N1CCCC1c1nnc2n1CCCCC2 (stereo not drawn)	cytotoxicity at 70.5 h	-8.56
O=C(CSc1nnc(N2CCOCC2)s1)NCc1cccs1	cytotoxicity at 70.5 h	-2.54
Cc1nc(CN2CCCC(Nc3ncnc4ccsc34)C2)no1 (stereo not drawn)	cytotoxicity at 70.5 h	-9.16
N#Cc1ccc(S(=O)(=O)Nc2cnn(C3CCOCC3)c2)cc1	cytotoxicity at 70.5 h	-1.54
NC(=O)NC(=O)CCN(Cc1ccccc1)CC1CCOCC1	cytotoxicity at 70.5 h	-2.94
c1ccc(-c2ncc(CNC3CCc4ncnn4C3)cn2)cc1 (stereo not drawn)	cytotoxicity at 70.5 h	-11
CC(=O)N1CCN(C(=O)Cn2ccc3c(Cl)cccc32)CC1	cytotoxicity at 70.5 h	-16.8
COc1cccc([C@@H]2CCN(Cc3c[nH]c(C)n3)C[C@H]2O)c1	cytotoxicity at 70.5 h	17.7
CC(C)N(C)Cc1cncc2c1CCN(Cc1ccoc1)C2	cytotoxicity at 70.5 h	-1.23
Cc1ccsc1C(=O)NC(C)c1ccc2c(c1)CCC(=O)N2 (stereo not drawn)	cytotoxicity at 70.5 h	-1.83
CC(C)C1CN(C(=O)c2ccsc2)CCS1 (stereo not drawn)	cytotoxicity at 70.5 h	-9.62
Cc1cnn(CC2CCCN2CC(=O)N(C)Cc2cnn(C)c2)c1 (stereo not drawn)	cytotoxicity at 70.5 h	-1.69
CN(CC1(CO)CCC1)c1nc2c(c(=O)[nH]1)Cc1ccccc1OC2	cytotoxicity at 70.5 h	-10.8
O=C(CCNS(=O)(=O)c1ccccc1F)NCc1ccoc1	cytotoxicity at 70.5 h	4.05
O=C(Cn1[nH]c2ccccc2c1=O)N1CCCC(CC2CC2)(C(=O)O)C1 (stereo not drawn)	cytotoxicity at 70.5 h	-7.99
